System: MS2 coat protein
Measurement description: apparent KD of MS2 coat protein; designed switch direction (-1 OFF switch, 1 ON switch): 1; higher = weaker reporter binding
Assay setup: Eterna round: R98; input ligand: FMN 200 uM

>  <Sequence>
AUGAAGAGGCAAGGAUAUCGAGUGCUGGGCCUAUACAUGAGGAUCACCCAUGUCCUGGCAGGACGUGAGAAGGUGUAUCGAAUA [Ussotemaa]

>  <apparent KD of MS2 coat protein (nM)>
455

$$$$
>  <Sequence>
CUGUGGGCCAUAGGAUAUGCGCAGAAUUAGCAAGCAGAAGGGUGGAUCGGACAAUAAUAACUACAUGAGGAUCACCCAUGUGCU [Lelegeza]

>  <apparent KD of MS2 coat protein (nM)>
55.5

$$$$
>  <Sequence>
AGUUGCAAACAGAACAUGAGGAUCACCCAUGUGCUCUCGUGUAAGGAUAUACAUUCGUAUGGAAAGUAGAAGGUACUAAUUAUG [JR_SSNG3_Sub93]

>  <apparent KD of MS2 coat protein (nM)>
66.3

$$$$
>  <Sequence>
GACGGAUUCUUAGGAUAUGCUCAGGAUAACUGAGCAGAAGGAAGAAUAACCUGAGGAUCACCCAGGUAAUACUGAACGUCAAUA [Same State NG1 - A3C, U17G Submission 9B]

>  <apparent KD of MS2 coat protein (nM)>
20.7

$$$$
>  <Sequence>
AUAUAAAAUAUAGGAUAUGGAAACAUGAGGAUCACCCAUGUAUGAUAAGAUAAAUAAUGAUAUAGCCAGAAGGAUACAAUAUAA [LRO008_SS NG 2]

>  <apparent KD of MS2 coat protein (nM)>
47.5

$$$$
>  <Sequence>
AAAUAAAAUAUAGGAUAUGGAAACAUGAGGAUCACCCAUGUAAGAUAAGAUAAAUAAUGAUAUAGCCAGAAGGAUAAAAUAUAA [LRO005_SS NG 2]

>  <apparent KD of MS2 coat protein (nM)>
32.7

$$$$
>  <Sequence>
GGAGACCUCACAGGAUAUGCUGGACUUUGUCCAGCAGAAGGGUGAACAUGAGGAUCACCCAUGUAGGUCUCCAAAAUAUUUAAU [Denovo 50]

>  <apparent KD of MS2 coat protein (nM)>
989

$$$$
>  <Sequence>
AAUAAUCAGGUAGGAUAUGCUCAGGAAUACUGAGCAGAAGGACUAGAAACCUGAGGAUCACCCAGGUAACUGGAAUAAUAAUAA [Same State NG1 - A3C, U17G Submission 6A]

>  <apparent KD of MS2 coat protein (nM)>
53.6

$$$$
>  <Sequence>
CGAACCACUUAGGUACCACACAUGAGGAUCACCCAUGUAUCACAGGAUAUGCAUGAUAUAUUCAGGCAGAAGGGUGAUCUUACC [Esananti]

>  <apparent KD of MS2 coat protein (nM)>
265

$$$$
>  <Sequence>
GACGAAUUCUUAGGAUAUCGAGUGGAUAACACUCGAGAAGGAAGAUAUACCUGAGGAUCACCCAGGUUAAACUGGACGUCAAUA [Same State NG1 - A3C, U17G Submission 8C]

>  <apparent KD of MS2 coat protein (nM)>
53.6

$$$$
>  <Sequence>
CAUGUAUGGUGAGGAUAUGCAAAGGAUCACCUUGUAGAAGGCAUCAGGUAGAAGGUGCAGAGGAUCACCCUGUAAGGAUAUAUC [pwkr2 ssNG1 DX.23]

>  <apparent KD of MS2 coat protein (nM)>
72

$$$$
>  <Sequence>
CCAGAUAUAUGAGGAUAUCGAGUGGAAUACACUCGAGAAGGUAUGUGAAAACAUGAGGAUCACCCAUGUGAUUAAUAAUCUGGA [SameState NG1 #1]

>  <apparent KD of MS2 coat protein (nM)>
22.4

$$$$
>  <Sequence>
UCACUCACGUUAGGAUAUGGAUCGGAAAACGAUCCAGAAGGAACCUGCAAACAAGAGGAUCACCCUUGUUCCAAUAACGAGUGA [SameSame 6 - Jieux - Same State NG 1]

>  <apparent KD of MS2 coat protein (nM)>
40.9

$$$$
